system: thromboxane B2 (TXB2) formation; test: Percent inhibition against thromboxane B2 (TXB2) formation in collagen-stimulated PRP from mice after oral administration (RIA); assay type: in vivo, ddY male mouse; conditions: Mus musculus, 30 mg/kg oral, blood collected 1 hour later, 12.5 μg/ml collagen, TXB2 5 minutes later
Recorded inhibition at 30 mg/kg, one value per entry.
Field format: number, assumed %, no unit text.

Examples with their reported inhibition at 30 mg/kg follow.
Q) Please indicate inhibition at 30 mg/kg recorded for COC(=O)C1=C(C)NC(C)=C(C(=O)OCCOC(=O)c2ccc(OCCn3ccnc3)cc2)C1c1cccc(Cl)c1Cl (centres unmarked)
A) 75

Q) Please indicate inhibition at 30 mg/kg recorded for COC(=O)C1=C(C)NC(C)=C(C(=O)OCCOC(=O)C=Cc2ccc(Cn3ccnc3)cc2)C1c1cccc([N+](=O)[O-])c1 (centres unmarked)
A) 60

Further cases:
Q) Please indicate inhibition at 30 mg/kg recorded for COC(=O)C1=C(C)NC(C)=C(C(=O)OCCOC(=O)C=Cc2ccc(Cn3ccnc3)cc2)C1c1ccccc1F (centres unmarked)
A) 52

Q) Please indicate inhibition at 30 mg/kg recorded for CCOC(=O)C1=C(C)NC(C)=C(C(=O)OCCOC(=O)c2ccc(OCCn3ccnc3)cc2)C1c1cccc([N+](=O)[O-])c1 (centres unmarked)
A) 42

Q) Please indicate inhibition at 30 mg/kg recorded for CCOC(=O)C1=C(C)NC(C)=C(C(=O)OCCCOC(=O)c2ccc(OCCn3ccnc3)cc2)C1c1cccc([N+](=O)[O-])c1 (centres unmarked)
A) 74
